B1: Twister Ribozyme (parent)
chain: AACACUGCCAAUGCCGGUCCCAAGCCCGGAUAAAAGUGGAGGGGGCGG

- Variants of: B1
- MEASUREMENT PROTOCOL: self-cleavage, relative activity (ratio to wild type); higher = more cleavage; co-transcriptional
MEASURED QUANTITY: self-cleavage

Below: 8 variants and their reported self-cleavage.
>>> reported_measurement("A22G C27G")
0.084
>>> reported_measurement("C26U G48A")
0.185
>>> reported_measurement("A40G C46A")
0.164
>>> reported_measurement("G7U A33C")
0.0647
>>> reported_measurement("C3G C9G")
0.139
>>> reported_measurement("G36C G38C")
0.217
>>> reported_measurement("C19A G47A")
0.139
>>> reported_measurement("U6A C21G")
0

Batch lookup, self-cleavage per entry.
1. G7A G45C
2. G29A G45C
3. A4C G7C
4. C9A G42U
5. C26G G39C
6. C9U A10U

1. 0.139
2. 0.249
3. 0.0903
4. 0.149
5. 0.119
6. 0.399

Batch lookup, self-cleavage per entry.
1. C25G G29U
2. C8A U12C
3. C9U A35U
4. G13U C27A
5. G24C U31C
6. C20G A35C
7. C9U G44C
8. U31G C46G

0.651
0.504
0.767
0.0958
0.108
0.14
0.677
0.852
